Measured inhibition at 0.1 µM, listed per entry for reference.
# STUDY_TARGET: angiotensin II (A-II) receptor (Bos taurus)
# Construct: An A-II receptor membrane fraction was prepared from bovine adrenal cortex; from tissue; host or cells: bovine adrenal cortex membrane fraction
# Sequence (P25104 whole entry): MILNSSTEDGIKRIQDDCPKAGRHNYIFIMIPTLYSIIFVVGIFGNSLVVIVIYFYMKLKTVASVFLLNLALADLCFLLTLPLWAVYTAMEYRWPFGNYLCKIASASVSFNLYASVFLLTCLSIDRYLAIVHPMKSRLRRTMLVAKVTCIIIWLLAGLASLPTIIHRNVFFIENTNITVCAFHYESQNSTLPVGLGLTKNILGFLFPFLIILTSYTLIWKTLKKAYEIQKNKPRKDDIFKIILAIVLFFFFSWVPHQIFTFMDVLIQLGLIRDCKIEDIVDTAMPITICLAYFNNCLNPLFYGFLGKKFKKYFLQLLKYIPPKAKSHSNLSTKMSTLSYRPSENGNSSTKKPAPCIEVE
# TEST: Inhibitory Effect of Binding of Angiotensin-II to Angiotensin Receptor (radioreceptor assay, 125I-AII, adrenal cortex membrane fraction)
# CONDITION_DESCRIPTION: 10^-7 M, bovine adrenal cortex membrane, room temperature, one hour
Respond numerically; units are % and should not be typed.

// solved cases for inhibition at 0.1 µM follow
1) COc1nc2cccc(C(=O)O)c2n1Cc1ccc(-c2ccccc2-c2noc(=O)[nH]2)cc1 [Example 35]; 38
2) CCc1nc2c(C)cc(C(=O)O)nc2n1Cc1ccc(-c2ccccc2-c2nc(=O)o[nH]2)cc1 [Example 56]; 80
3) COc1nc2c(C)sc(C(=O)O)c2n1Cc1ccc(-c2ccccc2-c2nc(=O)o[nH]2)cc1 [Example 9]; 19
4) CCCc1nc2cccc(C(=O)O)c2n1Cc1ccc(-c2ccccc2-c2nc(=O)o[nH]2)cc1 [Example 30]; 35
5) O=C(O)c1cccc2nc(C3CC3)n(Cc3ccc(-c4ccccc4-c4noc(=O)[nH]4)cc3)c12 [Example 32]; 27
6) COC(=O)c1cccc2nc(C3CC3)n(Cc3ccc(-c4ccccc4-c4nc(=O)o[nH]4)cc3)c12 [Example 32c]; 40

input: Hello, please tell me recorded inhibition at 0.1 µM for this one: CCOc1nc2cccc(C(=O)O)c2n1Cc1ccc(-c2ccccc2-c2nc(=O)o[nH]2)cc1 [Example 1]
output: 34

input: State its inhibition at 0.1 µM: CCCOc1nc2cccc(C(=O)O)c2n1Cc1ccc(-c2ccccc2-c2nc(=O)o[nH]2)cc1 [Example 36]
output: 18

input: Kindly indicate its recorded inhibition at 0.1 µM. Item: CCOc1nc2cccc(C(=O)OC(C)OC(=O)OC3CCCCC3)c2n1Cc1ccc(-c2ccccc2-c2nc(=O)o[nH]2)cc1 (stereo not shown) [Example 4]
output: 17

input: Answer with reported inhibition at 0.1 µM of CCOc1nc2cccc(C(=O)OC)c2n1Cc1ccc(-c2ccccc2C2=NOS(=O)N2)cc1 (stereo not shown) [Example 3]
output: 33

input: Respond only with inhibition at 0.1 µM recorded for CCc1nc2cccc(C(=O)O)c2n1Cc1ccc(-c2ccccc2-c2nc(=O)o[nH]2)cc1 [Example 31]
output: 41

input: Identify measured inhibition at 0.1 µM associated with CCNc1nc2c(C)sc(C(=O)O)c2n1Cc1ccc(-c2ccccc2-c2nc(=O)o[nH]2)cc1 [Example 12]
output: 46

input: Name the recorded inhibition at 0.1 µM of the compound listed here: CCOc1nc2cccc(C(=O)OC)c2n1Cc1ccc(-c2ccccc2-c2nc(=O)s[nH]2)cc1 [Example 60]
output: 43

input: For CCOc1nc2c(C)sc(C(=O)O)c2n1Cc1ccc(-c2ccccc2-c2nc(=O)o[nH]2)cc1 [Example 10] , write its inhibition at 0.1 µM.
output: 17

input: Return inhibition at 0.1 µM for the following compound: CCCCc1nc2cccc(C(=O)O)c2n1Cc1ccc(-c2ccccc2-c2noc(=O)[nH]2)cc1 [Example 33]
output: 23

input: Provide inhibition at 0.1 µM value for the following compound: CCSc1nc2c(C)sc(C(=O)O)c2n1Cc1ccc(-c2ccccc2-c2noc(=O)[nH]2)cc1 [Example 8]
output: 8

All values here come from patent US5736555A.
